Cited source: paper PMC7397174

- System: erythrocytic forms of P. falciparum (strain 3D7)
- TEST SUMMARY: Viability screening of antiplasmodial activity (SYBR-gold DNA quantification, 96 h)
- Assay type: cell-based, Plasmodium falciparum
- CONDITION PARAMETERS: Plasmodium falciparum, 96 h; 3 µM; strain 3D7; calculated on DMSO controls; read-out: Parasitemia (3D7) at 3 µM [%]
Parameter: activity at 3 µM. Scope: all listed entries.
TEST READOUT: activity at 3 µM (%)

{"MOLECULE": "CC(C)(C)OC(=O)N1CCN(c2ccc(-c3c4c(nc5sc(C(=O)Nc6ccc(Cl)cc6)c(N)c35)CCCC4)c(Cl)c2)CC1 [Compound 17k]", "TEST READOUT": "activity at 3 µM", "ENDPOINT UNIT": "%", "MEASURED NUMBER": 2.6}
{"MOLECULE": "Cc1nc2sc(C(=O)Nc3ccc(Cl)cc3)c(N)c2c(-c2ccccc2)c1C(=O)O [Compound 17j]", "TEST READOUT": "activity at 3 µM", "ENDPOINT UNIT": "%", "MEASURED NUMBER": 97.1}
{"MOLECULE": "N#Cc1c(N)nc2sc(C(=O)Nc3ccccc3Cl)c(N)c2c1-c1cccc(Cl)c1", "TEST READOUT": "activity at 3 µM", "ENDPOINT UNIT": "%", "MEASURED NUMBER": 40}
{"MOLECULE": "Nc1c(C(=O)Nc2ccc(Cl)cc2)sc2nc3c(c(-c4ccccc4)c12)CCC3 [Compound 17b]", "TEST READOUT": "activity at 3 µM", "ENDPOINT UNIT": "%", "MEASURED NUMBER": 7.7}
{"MOLECULE": "N#Cc1c(N)nc2sc(C(=O)Nc3ccc(Cl)cc3)c(N)c2c1-c1ccc(N2CCCC2)cc1Cl", "TEST READOUT": "activity at 3 µM", "ENDPOINT UNIT": "%", "MEASURED NUMBER": 6.4}
{"MOLECULE": "N#Cc1c(N)nc2sc(C(=O)Nc3ccc(F)cc3)c(N)c2c1-c1cccc(Cl)c1", "TEST READOUT": "activity at 3 µM", "ENDPOINT UNIT": "%", "MEASURED NUMBER": 3.5}
{"MOLECULE": "CN(CCNC(=O)OC(C)(C)C)c1ccc(-c2c(C#N)c(N)nc3sc(C(=O)Nc4ccc(Cl)cc4)c(N)c23)c(Cl)c1", "TEST READOUT": "activity at 3 µM", "ENDPOINT UNIT": "%", "MEASURED NUMBER": 5.5}
{"MOLECULE": "Cc1cccc(-c2c(C(=O)OC(C)(C)C)c(C)nc3sc(C(=O)Nc4ccc(Cl)cc4)c(N)c23)c1 [Compound 17h]", "TEST READOUT": "activity at 3 µM", "ENDPOINT UNIT": "%", "MEASURED NUMBER": 2.3}
{"MOLECULE": "Cc1cccc(-c2c(C#N)c(N)nc3sc(C(=O)NCCN4CCOCC4)c(N)c23)c1", "TEST READOUT": "activity at 3 µM", "ENDPOINT UNIT": "%", "MEASURED NUMBER": 91.6}
{"MOLECULE": "CN(C)CCN(C)c1ccc(-c2c(C#N)c(N)nc3sc(C(=O)Nc4cccc(Cl)c4)c(N)c23)c(Cl)c1", "TEST READOUT": "activity at 3 µM", "ENDPOINT UNIT": "%", "MEASURED NUMBER": 4.5}
{"MOLECULE": "Cc1cccc(-c2c(C#N)c(N)nc3sc(C(=O)Nc4ccc(Cl)cc4)c(N)c23)c1", "TEST READOUT": "activity at 3 µM", "ENDPOINT UNIT": "%", "MEASURED NUMBER": 5.6}
{"MOLECULE": "Cc1cccc(-c2c(C(=O)O)c(C)nc3sc(C(=O)Nc4ccc(Cl)cc4)c(N)c23)c1 [Compound 17i]", "TEST READOUT": "activity at 3 µM", "ENDPOINT UNIT": "%", "MEASURED NUMBER": 62.4}
{"MOLECULE": "CNC(=O)c1sc2nc(N)c(C#N)c(-c3cccc(C)c3)c2c1N", "TEST READOUT": "activity at 3 µM", "ENDPOINT UNIT": "%", "MEASURED NUMBER": 108}
{"MOLECULE": "CN(C)CCN(C)c1ccc(-c2c(C#N)c(N)nc3sc(C(=O)Nc4ccc(F)cc4)c(N)c23)c(Cl)c1", "TEST READOUT": "activity at 3 µM", "ENDPOINT UNIT": "%", "MEASURED NUMBER": 1.6}
{"MOLECULE": "N#Cc1c(N)nc2sc(C(=O)Nc3ccccc3Cl)c(N)c2c1-c1ccc(N2CCCC2)cc1Cl", "TEST READOUT": "activity at 3 µM", "ENDPOINT UNIT": "%", "MEASURED NUMBER": 60.6}
{"MOLECULE": "CN(CCN)c1ccc(-c2c(C#N)c(N)nc3sc(C(=O)Nc4cccc(Cl)c4)c(N)c23)c(Cl)c1", "TEST READOUT": "activity at 3 µM", "ENDPOINT UNIT": "%", "MEASURED NUMBER": 2.7}
{"MOLECULE": "N#Cc1c(N)nc2sc(C(=O)Nc3ccc(F)cc3)c(N)c2c1-c1cccc(F)c1", "TEST READOUT": "activity at 3 µM", "ENDPOINT UNIT": "%", "MEASURED NUMBER": 6.1}
{"MOLECULE": "Cc1cc(-c2ccc(N3CCN(C(=O)OC(C)(C)C)CC3)cc2Cl)c2c(N)c(C(=O)Nc3ccc(Cl)cc3)sc2n1 [Compound 17l]", "TEST READOUT": "activity at 3 µM", "ENDPOINT UNIT": "%", "MEASURED NUMBER": 1}
{"MOLECULE": "N#Cc1c(N)nc2sc(C(=O)Nc3ccccc3Cl)c(N)c2c1-c1cccc(F)c1", "TEST READOUT": "activity at 3 µM", "ENDPOINT UNIT": "%", "MEASURED NUMBER": 46}
{"MOLECULE": "N#Cc1c(N)nc2sc(C(=O)Nc3ccc(Cl)cc3)c(N)c2c1-c1cccc(Cl)c1", "TEST READOUT": "activity at 3 µM", "ENDPOINT UNIT": "%", "MEASURED NUMBER": 3.7}
{"MOLECULE": "CCCCCCCNC(=O)c1sc2nc(N)c(C#N)c(-c3cccc(C)c3)c2c1N", "TEST READOUT": "activity at 3 µM", "ENDPOINT UNIT": "%", "MEASURED NUMBER": 84}
{"MOLECULE": "Cc1cccc(-c2c3c(nc4sc(C(=O)Nc5ccc(Cl)cc5)c(N)c24)CCC3)c1 [Compound 17f]", "TEST READOUT": "activity at 3 µM", "ENDPOINT UNIT": "%", "MEASURED NUMBER": 1}
{"MOLECULE": "CN(CCNC(=O)OC(C)(C)C)c1ccc(-c2c(C#N)c(N)nc3sc(C(=O)Nc4ccccc4Cl)c(N)c23)c(Cl)c1", "TEST READOUT": "activity at 3 µM", "ENDPOINT UNIT": "%", "MEASURED NUMBER": 13.3}
{"MOLECULE": "Cc1nc2sc(C(=O)Nc3ccc(Cl)cc3)c(N)c2c(-c2ccccc2)c1C(=O)OC(C)(C)C [Compound 17g]", "TEST READOUT": "activity at 3 µM", "ENDPOINT UNIT": "%", "MEASURED NUMBER": 9.8}
